# assayed target: human TAS1R2-S212G/TAS1R3-WT (Homo sapiens, UniProt Q7RTX0+Q8TE23, S212G)
# Construct: expressed in transfected cells; host or cells: HEK293T-Gα16gust44
# Sequence (Q8TE23 20-839 S212G): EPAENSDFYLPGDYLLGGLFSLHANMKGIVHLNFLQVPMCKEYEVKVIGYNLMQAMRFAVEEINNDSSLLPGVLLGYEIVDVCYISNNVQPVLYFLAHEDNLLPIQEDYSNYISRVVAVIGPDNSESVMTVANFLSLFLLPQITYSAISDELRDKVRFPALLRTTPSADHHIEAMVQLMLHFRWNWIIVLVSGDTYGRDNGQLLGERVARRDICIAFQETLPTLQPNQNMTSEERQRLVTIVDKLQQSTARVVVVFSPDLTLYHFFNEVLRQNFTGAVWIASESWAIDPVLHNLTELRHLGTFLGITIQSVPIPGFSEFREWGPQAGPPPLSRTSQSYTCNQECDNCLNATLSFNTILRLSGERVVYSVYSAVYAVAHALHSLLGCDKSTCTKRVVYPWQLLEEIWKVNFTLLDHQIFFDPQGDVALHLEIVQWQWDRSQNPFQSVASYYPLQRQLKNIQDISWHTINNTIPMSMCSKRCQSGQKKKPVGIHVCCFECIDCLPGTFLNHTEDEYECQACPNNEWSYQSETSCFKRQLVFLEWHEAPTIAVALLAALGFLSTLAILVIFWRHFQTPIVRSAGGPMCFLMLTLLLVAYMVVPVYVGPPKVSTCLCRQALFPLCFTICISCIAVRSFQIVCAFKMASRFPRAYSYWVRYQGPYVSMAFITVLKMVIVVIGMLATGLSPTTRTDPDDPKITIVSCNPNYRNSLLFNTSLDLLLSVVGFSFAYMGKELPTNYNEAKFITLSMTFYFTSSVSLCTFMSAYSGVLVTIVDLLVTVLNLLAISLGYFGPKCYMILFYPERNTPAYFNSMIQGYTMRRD
# Sequence (Q7RTX0 21-852): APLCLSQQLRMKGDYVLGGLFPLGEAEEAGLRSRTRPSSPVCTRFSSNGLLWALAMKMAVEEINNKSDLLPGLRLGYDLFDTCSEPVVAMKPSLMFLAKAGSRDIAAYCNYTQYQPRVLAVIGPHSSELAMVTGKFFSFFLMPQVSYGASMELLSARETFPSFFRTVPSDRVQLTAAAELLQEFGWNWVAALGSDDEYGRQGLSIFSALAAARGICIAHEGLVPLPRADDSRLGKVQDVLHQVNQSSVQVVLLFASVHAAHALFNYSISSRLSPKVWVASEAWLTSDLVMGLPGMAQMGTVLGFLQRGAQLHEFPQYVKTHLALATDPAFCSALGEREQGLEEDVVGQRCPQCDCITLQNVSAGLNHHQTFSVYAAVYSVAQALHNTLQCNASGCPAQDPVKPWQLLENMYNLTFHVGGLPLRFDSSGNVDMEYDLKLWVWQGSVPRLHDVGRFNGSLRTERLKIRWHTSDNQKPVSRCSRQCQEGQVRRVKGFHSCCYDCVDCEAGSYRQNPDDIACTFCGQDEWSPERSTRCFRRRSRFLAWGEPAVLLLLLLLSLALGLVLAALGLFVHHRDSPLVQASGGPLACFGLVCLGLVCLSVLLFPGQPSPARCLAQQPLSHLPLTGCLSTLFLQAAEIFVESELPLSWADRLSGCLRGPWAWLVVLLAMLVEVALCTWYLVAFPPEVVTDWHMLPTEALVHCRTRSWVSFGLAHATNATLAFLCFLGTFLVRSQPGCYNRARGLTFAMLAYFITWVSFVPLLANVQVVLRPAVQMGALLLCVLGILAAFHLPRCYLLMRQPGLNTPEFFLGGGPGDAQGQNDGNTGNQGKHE
# measurement notes: Calcium mobilisation assay, TAS1R2 variant S212G with TAS1R3-WT
# Type: cell-based
List of R1 = Variant EC50/WT EC50 values.
property: R1 = Variant EC50/WT EC50

1) COC(=O)[C@H](Cc1ccccc1)NC(=O)[C@H](CC(=O)O)NCCC(C)(C)C : 1.2
2) C=C1C[C@@]23CC[C@H]4[C@@](C)(CCC[C@@]4(C)C(=O)O[C@@H]4O[C@H](CO)[C@@H](O)[C@H](O[C@@H]5O[C@H](CO)[C@@H](O)[C@H](O)[C@H]5O)[C@H]4O[C@@H]4O[C@H](CO)[C@@H](O)[C@H](O)[C@H]4O)[C@@H]2CC[C@]1(O[C@@H]1O[C@H](CO)[C@@H](O)[C@H](O[C@@H]2O[C@H](CO)[C@@H](O)[C@H](O)[C@H]2O)[C@H]1O[C@@H]1O[C@H](CO)[C@@H](O)[C@H](O)[C@H]1O)C3 [Rebaudioside M, rebaudioside M] : 1.4
3) OC[C@H]1O[C@H](O[C@]2(CCl)O[C@H](CCl)[C@@H](O)[C@@H]2O)[C@H](O)[C@@H](O)[C@H]1Cl : 1.1
4) C=C(C)[C@@H]1CC=C(/C=N/O)CC1 : 1.3
5) C[C@H](CC[C@@H](O[C@@H]1O[C@H](CO[C@@H]2O[C@H](CO)[C@@H](O)[C@H](O)[C@H]2O)[C@@H](O)[C@H](O)[C@H]1O[C@@H]1O[C@H](CO)[C@@H](O)[C@H](O)[C@H]1O)C(C)(C)O)[C@H]1CC[C@@]2(C)[C@@H]3CC=C4[C@@H](CC[C@H](O[C@@H]5O[C@H](CO[C@@H]6O[C@H](CO)[C@@H](O)[C@H](O)[C@H]6O)[C@@H](O)[C@H](O)[C@H]5O)C4(C)C)[C@]3(C)[C@H](O)C[C@]12C [Mogroside V, mogroside V] : 1.2
6) CC1=CC(=O)NS(=O)(=O)O1 : 0.6
7) COc1ccc(CCC(=O)c2c(O)cc(O[C@@H]3O[C@H](CO)[C@@H](O)[C@H](O)[C@H]3O[C@@H]3O[C@@H](C)[C@H](O)[C@@H](O)[C@H]3O)cc2O)cc1O [NHDC, neohesperidin dihydrochalcone] : 1.2

====

# assayed target: human TAS1R2-WT/TAS1R3-R813K (Homo sapiens, UniProt Q7RTX0+Q8TE23, R813K)
# Construct: expressed in transfected cells; host or cells: HEK293T stably expressing Gα16gust44
# Sequence (Q8TE23 20-839): as the sequence (Q8TE23 20-839 S212G) above, with G193S counted along it
# Sequence (Q7RTX0 21-852 R813K): as the sequence (Q7RTX0 21-852) above, with R793K counted along it
# measurement notes: Calcium mobilisation assay, TAS1R2-WT with TAS1R3 variant R813K
# Format: cell-based
Examples of compounds with documented R1 = Variant EC50/WT EC50 follow.
property: R1 = Variant EC50/WT EC50

1. CC1=CC(=O)NS(=O)(=O)O1 [Acesulfame K, acesulfame K] : 0.7
2. COC(=O)[C@H](Cc1ccccc1)NC(=O)[C@H](CC(=O)O)NCCC(C)(C)C [Neotame] : 0.8
3. C=C(C)[C@@H]1CC=C(/C=N/O)CC1 [Perillartine, perillartine] : 0.8
4. OC[C@H]1O[C@H](O[C@]2(CCl)O[C@H](CCl)[C@@H](O)[C@@H]2O)[C@H](O)[C@@H](O)[C@H]1Cl [Sucralose] : 1.1
5. C[C@H](CC[C@@H](O[C@@H]1O[C@H](CO[C@@H]2O[C@H](CO)[C@@H](O)[C@H](O)[C@H]2O)[C@@H](O)[C@H](O)[C@H]1O[C@@H]1O[C@H](CO)[C@@H](O)[C@H](O)[C@H]1O)C(C)(C)O)[C@H]1CC[C@@]2(C)[C@@H]3CC=C4[C@@H](CC[C@H](O[C@@H]5O[C@H](CO[C@@H]6O[C@H](CO)[C@@H](O)[C@H](O)[C@H]6O)[C@@H](O)[C@H](O)[C@H]5O)C4(C)C)[C@]3(C)[C@H](O)C[C@]12C [Mogroside V, mogroside V] : 0.7
6. COc1ccc(CCC(=O)c2c(O)cc(O[C@@H]3O[C@H](CO)[C@@H](O)[C@H](O)[C@H]3O[C@@H]3O[C@@H](C)[C@H](O)[C@@H](O)[C@H]3O)cc2O)cc1O [NHDC, neohesperidin dihydrochalcone] : 0.7
